System Tested: D(4) dopamine receptor (Homo sapiens, UniProt P21917)
Sequence (P21917 whole entry): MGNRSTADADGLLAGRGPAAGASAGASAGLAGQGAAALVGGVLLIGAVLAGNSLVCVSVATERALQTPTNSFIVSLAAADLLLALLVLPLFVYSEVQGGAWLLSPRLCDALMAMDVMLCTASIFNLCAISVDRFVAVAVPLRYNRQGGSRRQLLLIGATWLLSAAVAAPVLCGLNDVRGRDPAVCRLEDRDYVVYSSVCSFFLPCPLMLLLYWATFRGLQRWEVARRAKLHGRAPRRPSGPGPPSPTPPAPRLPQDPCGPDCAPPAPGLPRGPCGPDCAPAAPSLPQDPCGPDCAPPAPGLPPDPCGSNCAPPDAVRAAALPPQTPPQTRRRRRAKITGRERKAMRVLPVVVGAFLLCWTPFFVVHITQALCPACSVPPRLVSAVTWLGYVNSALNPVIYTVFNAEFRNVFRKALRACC
Experiment Summary: Displacement of [3H]-nemonapride from human D4 receptor expressed in CHO cells assessed as inhibition constant
Type: cell-based
Readout Type: pKi
Numbers only, as −log10 of the molar value.

Task: Entry `CCOC(=O)N1CCN(Cc2cnn(-c3ccc(Cl)cc3)c2)CC1` : reported pKi = ?
Output: 6.59

###

System Tested: D(2) dopamine receptor (Homo sapiens, UniProt P14416)
Sequence (P14416 whole entry): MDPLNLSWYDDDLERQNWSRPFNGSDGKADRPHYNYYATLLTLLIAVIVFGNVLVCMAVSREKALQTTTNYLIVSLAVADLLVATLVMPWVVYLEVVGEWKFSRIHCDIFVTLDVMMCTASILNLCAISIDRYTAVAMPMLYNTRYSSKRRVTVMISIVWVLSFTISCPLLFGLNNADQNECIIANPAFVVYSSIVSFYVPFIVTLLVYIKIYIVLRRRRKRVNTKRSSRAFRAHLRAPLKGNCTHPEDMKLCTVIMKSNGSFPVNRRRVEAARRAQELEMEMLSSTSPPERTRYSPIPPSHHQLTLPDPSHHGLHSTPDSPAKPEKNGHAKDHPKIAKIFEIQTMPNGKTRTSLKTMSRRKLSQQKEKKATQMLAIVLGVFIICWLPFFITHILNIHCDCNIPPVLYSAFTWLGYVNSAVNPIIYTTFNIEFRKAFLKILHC
Experiment Summary: Binding affinity to human D2R assessed as inhibition constant by Cheng-Prusoff equation analysis
pKi: −log10 of the molar value.
Readout Type: pKi

Task: Could you share which pKi value was measured for `OCc1ccc(N2CCN(Cc3nc4ccccc4[nH]3)CC2)cc1Cl` ?
Output: < 5.23

###

System Tested: D(4) dopamine receptor (Homo sapiens)
Experiment Summary: Agonist activity at human D4R
Readout Type: pEC50
One number for each entry, as −log10 of the molar value.

Task: Item under review: `Cc1ncc(CN2CC=C(c3ccccc3)CC2)c(N)n1` . Reported pEC50?
Output: 6.69

###

System Tested: D(3) dopamine receptor (Homo sapiens)
Sequence (P35462 whole entry): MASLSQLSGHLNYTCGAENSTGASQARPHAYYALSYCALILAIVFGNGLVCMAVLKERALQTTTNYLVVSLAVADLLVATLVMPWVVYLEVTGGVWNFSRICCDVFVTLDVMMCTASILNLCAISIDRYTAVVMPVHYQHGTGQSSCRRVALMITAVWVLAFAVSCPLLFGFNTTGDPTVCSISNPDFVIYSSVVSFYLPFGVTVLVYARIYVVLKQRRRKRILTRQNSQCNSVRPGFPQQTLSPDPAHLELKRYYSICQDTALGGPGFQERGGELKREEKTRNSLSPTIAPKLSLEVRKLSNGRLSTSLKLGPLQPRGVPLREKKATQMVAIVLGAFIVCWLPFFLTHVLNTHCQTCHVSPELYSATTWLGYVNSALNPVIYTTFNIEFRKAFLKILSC
Experiment Summary: Displacement of [3H]-spiperone from human D3 receptor assessed as inhibition constant
Readout Type: pKi
One number for each entry, as −log10 of the molar value.

Task: Identify the measured pKi of `Clc1ccc2c(c1)N=C(N1CCN(c3ccccc3)CC1)CCN2` for D(3) dopamine receptor (Homo sapiens).
Output: 5.47

###

Hi there, I'd appreciate the recorded EC50 for every entry that follows.
System Tested: D(4) dopamine receptor (Homo sapiens, UniProt P21917)
Experiment Summary: Agonist activity at D4R (unknown origin) by camp reporter assay
Numbers only, in µM.

Compound: COc1ccccc1OCCNCC1COCC(c2ccccc2)(c2ccccc2)O1 (centres undefined)
Readout Type: EC50
Value: 0.0014

Consider the following items and state reported EC50 for each.
1. CC(=O)O[C@H]1CC(C)(C)C(=C=C/C(C)=C/C=C/C(C)=C/C=C/C=C(C)/C=C/C=C(\C)C(=O)C[C@@]23O[C@]2(C)C[C@@H](O)CC3(C)C)[C@](C)(O)C1
2. CCOC(=O)c1nn(-c2ccccc2)cc1CN(C)[C@@H]1CCSC1
3. CC(C)N1C[C@H](NC(=O)N2Cc3ccccc3[C@@H]2C)[C@@H](C)C1

Output:
1. 82
2. 10.8
3. 0.00018

###

System Tested: D(2) dopamine receptor (Homo sapiens)
Experiment Summary: Binding affinity to D2R (unknown origin) assessed as inhibition constant
Readout Type: Ki

Reference set, count: 7
Molecule: COc1cccc(CCC2=NCCN2CCc2ccccc2)c1
Ki: > 10 µM
--
Molecule: Oc1cccc(OCCNCC2COCC(c3ccccc3)(c3ccccc3)O2)c1 (stereo not drawn)
Ki: > 10 µM
--
Molecule: COc1ccccc1OCCNCC1COCC(c2ccccc2)(c2ccccc2)O1 (stereo not drawn)
Ki: > 10 µM
--
Molecule: NS(=O)(=O)c1ccc(N2CCN(CCC3OCCc4ccccc43)CC2)cc1 (stereo not drawn)
Ki: 5.15 µM
--
Molecule: CC(C)N1C[C@H](NC(=O)N2Cc3ccccc3[C@@H]2C)[C@@H](C)C1
Ki: > 10 µM
--
Molecule: CCOC(=O)c1sc2[nH]cn/c(=N\[C@H]3CCN(CC)C3)c2c1C
Ki: > 10 µM
--
Molecule: CN(C)[C@@H](CNC(=O)NC[C@H]1Cc2ccccc21)CC1CCCCC1
Ki: > 10 µM

Task: Which measured Ki belongs to `CCOC(=O)N1CCN(Cc2cnn(-c3ccc(Cl)cc3)c2)CC1` , tested on D(2) dopamine receptor (Homo sapiens)?
Output: 10.2 µM
